These data points were gathered from the NIST ThermoML archive (doi:10.1021/je1005517).

assay: activity coefficient (dimensionless); of the first substance listed, at infinite dilution; xn = mol fraction of the nth substance listed; settings: 338.15 K; 101 kPa; Liquid; GC; x1 = 0
QUANTITY: activity coefficient
Enter a number only.

Entry CCCCCCCC [octane] + CCCCCCCCCCCCCCCCCCCCO ; activity coefficient = 0.187

Entry C1CCOC1 [tetrahydrofuran] + CCCCCCCCCCCCCCCCCCCCO ; activity coefficient = 0.0581

Entry Cc1ccccc1 [toluene] + CCCCCCCCCCCCCCCCCCO ; activity coefficient = 0.0355

Entry C1CCCCC1 [cyclohexane] + CCCCCCCCCCCCCCCCCCCCO ; activity coefficient = 0.108

Entry CC#N [acetonitrile] + CCCCCCCCCCCCCCCCCCO ; activity coefficient = 0.0969

Entry CCOCC [diethyl ether] + CCCCCCCCCCCCCCCCCCCCO ; activity coefficient = 0.0652

* * *

Reported activity coefficient values are given for each entry in this list.
experiment: activity coefficient (dimensionless); of the first substance listed, at infinite dilution; xn = mol fraction of the nth substance listed; conditions: 348.15 K; 101 kPa; Liquid; GC; x1 = 0
Enter a number only.

Use these answered entries as a reference point.
COMPOUND	activity coefficient
ClC(Cl)(Cl)Cl [tetrachloromethane] + CCCCCCCCCCCCCCCCCCO	0.028
CCCCOC(C)=O [butyl ethanoate] + CCCCCCCCCCCCCCCCCCCCO	0.123
CC#N [acetonitrile] + CCCCCCCCCCCCCCCCCCCCO	0.229
ClCCl [dichloromethane] + CCCCCCCCCCCCCCCCCCCCO	0.0532
C1CCCCC1 [cyclohexane] + CCCCCCCCCCCCCCCCCCCCO	0.0969

Entry ClC(Cl)Cl [trichloromethane] + CCCCCCCCCCCCCCCCCCO ; activity coefficient = 0.0208

Entry C=CCCCCC [1-heptene] + CCCCCCCCCCCCCCCCCCCCO ; activity coefficient = 0.113

Entry CCCCCCCC [octane] + CCCCCCCCCCCCCCCCCCO ; activity coefficient = 0.0473

Entry CO [methanol] + CCCCCCCCCCCCCCCCCCO ; activity coefficient = 0.033

Entry CCOCC [diethyl ether] + CCCCCCCCCCCCCCCCCCCCO ; activity coefficient = 0.0598

* * *

assay: activity coefficient (dimensionless); of the first substance listed, at infinite dilution; xn = mol fraction of the nth substance listed; settings: 338.15 K; 101 kPa; Liquid; GC; x1 = 0
Think of 0.1 as a floor: if activity coefficient stands on it or above, it is 1; beneath it, 0.

Some entries whose results are on file:
COMPOUND	CLASS LABEL
ClCCl [dichloromethane] + CCCCCCCCCCCCCCCCCCCCO	0
CCOC(C)=O [ethyl acetate] + CCCCCCCCCCCCCCCCCCCCO	1
C1CCOC1 [tetrahydrofuran] + CCCCCCCCCCCCCCCCCCO	0
CCCCOC(C)=O [butyl ethanoate] + CCCCCCCCCCCCCCCCCCCCO	1

Let's switch to this compound now.
Input line: Quick check, activity coefficient >= 0.1? CCCCC [pentane] + CCCCCCCCCCCCCCCCCCCCO
Output line: 0

* * *

test: activity coefficient (dimensionless); of the first substance listed, at infinite dilution; xn = mol fraction of the nth substance listed; details: 338.15 K; 101 kPa; Liquid; GC; x1 = 0
QUANTITY: activity coefficient
Enter a number only.

MOLECULE	activity coefficient
CO [methanol] + CCCCCCCCCCCCCCCCCCCCO	0.122
CCCCCl [1-chlorobutane] + CCCCCCCCCCCCCCCCCCCCO	0.0991
CCO [ethanol] + CCCCCCCCCCCCCCCCCCCCO	0.124
ClC(Cl)(Cl)Cl [tetrachloromethane] + CCCCCCCCCCCCCCCCCCO	0.0285
Cc1ccccc1 [toluene] + CCCCCCCCCCCCCCCCCCCCO	0.544

Let us examine a further case.
Entry CO [methanol] + CCCCCCCCCCCCCCCCCCO ; activity coefficient = 0.0386

* * *

test: activity coefficient (dimensionless); of the first substance listed, at infinite dilution; xn = mol fraction of the nth substance listed; conditions: 348.15 K; 101.3 kPa; Liquid; GC; x1 = 0
Think of 0.04 as a floor: if activity coefficient stands on it or above, it is criterion met; beneath it, criterion not met.

Input line: Quick check, activity coefficient >= 0.04? CCOC(C)=O [ethyl acetate] + CCCCCCCCCCCCCCCCCCO
Output line: criterion not met

Input line: Quick check, activity coefficient >= 0.04? CCCO [propan-1-ol] + CCCCCCCCCCCCCCCCCCO
Output line: criterion met

Input line: Quick check, activity coefficient >= 0.04? CCO [ethanol] + CCCCCCCCCCCCCCCCCCO
Output line: criterion not met

Input line: Quick check, activity coefficient >= 0.04? C=CCCC [1-pentene] + CCCCCCCCCCCCCCCCCCO
Output line: criterion not met

Input line: Quick check, activity coefficient >= 0.04? CCCCl [1-chloropropane] + CCCCCCCCCCCCCCCCCCO
Output line: criterion not met

* * *

experiment: activity coefficient (dimensionless); of the first substance listed, at infinite dilution; xn = mol fraction of the nth substance listed; settings: 348.15 K; 101.3 kPa; Liquid; GC; x1 = 0
QUANTITY: activity coefficient

COMPOUND	activity coefficient
C=CCCCCC [1-heptene] + CCCCCCCCCCCCCCCCCCO	0.0397
CCCCO [butan-1-ol] + CCCCCCCCCCCCCCCCCCO	0.11

Entry ClCCl [dichloromethane] + CCCCCCCCCCCCCCCCCCO ; activity coefficient = 0.0194

* * *

assay: activity coefficient (dimensionless); of the first substance listed, at infinite dilution; xn = mol fraction of the nth substance listed; settings: 353.15 K; 101.3 kPa; Liquid; GC; x1 = 0
Reported activity coefficient values are given for each entry in this list.
Enter a number only.

COMPOUND	activity coefficient
ClCCl [dichloromethane] + CCCCCCCCCCCCCCCCCCO	0.0178
CCCO [propan-1-ol] + CCCCCCCCCCCCCCCCCCO	0.051
CCO [ethanol] + CCCCCCCCCCCCCCCCCCO	0.032
CCCCO [butan-1-ol] + CCCCCCCCCCCCCCCCCCO	0.0992
C=CCCCCC [1-heptene] + CCCCCCCCCCCCCCCCCCO	0.0388
CCOC(C)=O [ethyl acetate] + CCCCCCCCCCCCCCCCCCO	0.0335
C=CCCC [1-pentene] + CCCCCCCCCCCCCCCCCCO	0.0213
CCCCl [1-chloropropane] + CCCCCCCCCCCCCCCCCCO	0.0225

Let us examine a further case.
Entry CCCCOC(C)=O [butyl ethanoate] + CCCCCCCCCCCCCCCCCCO ; activity coefficient = 0.0358

* * *

assay: activity coefficient (dimensionless); of the first substance listed, at infinite dilution; xn = mol fraction of the nth substance listed; settings: 338.15 K; 101 kPa; Liquid; GC; x1 = 0
Think of 0.06 as a floor: if activity coefficient stands on it or above, it is True; beneath it, False.

Input line: Quick check, activity coefficient >= 0.06? CC#N [acetonitrile] + CCCCCCCCCCCCCCCCCCCCO
Output line: True

Input line: Quick check, activity coefficient >= 0.06? CCCCCl [1-chlorobutane] + CCCCCCCCCCCCCCCCCCO
Output line: False

Input line: Quick check, activity coefficient >= 0.06? CCCCCC [hexane] + CCCCCCCCCCCCCCCCCCCCO
Output line: True

* * *

test: activity coefficient (dimensionless); of the first substance listed, at infinite dilution; xn = mol fraction of the nth substance listed; conditions: 333.15 K; 101.3 kPa; Liquid; GC; x1 = 0
QUANTITY: activity coefficient

Use these answered entries as a reference point.
COMPOUND	QUANTITY	REPORTED RESULT
CCOC(C)=O [ethyl acetate] + CCCCCCCCCCCCCCCCCCO	activity coefficient	0.0445
CCCCl [1-chloropropane] + CCCCCCCCCCCCCCCCCCO	activity coefficient	0.0331
CCCO [propan-1-ol] + CCCCCCCCCCCCCCCCCCO	activity coefficient	0.0722

Entry CCO [ethanol] + CCCCCCCCCCCCCCCCCCO ; activity coefficient = 0.0433

Entry CCCCOC(C)=O [butyl ethanoate] + CCCCCCCCCCCCCCCCCCO ; activity coefficient = 0.0526

Entry ClCCl [dichloromethane] + CCCCCCCCCCCCCCCCCCO ; activity coefficient = 0.0262

Entry CCCCO [butan-1-ol] + CCCCCCCCCCCCCCCCCCO ; activity coefficient = 0.154

Entry C=CCCCCC [1-heptene] + CCCCCCCCCCCCCCCCCCO ; activity coefficient = 0.0431

Entry C=CCCC [1-pentene] + CCCCCCCCCCCCCCCCCCO ; activity coefficient = 0.0261
